Assay system: Human CDK12 wt/CycK (Homo sapiens (Human), UniProt Q9NYV4)
Sequence (Q9NYV4 whole entry): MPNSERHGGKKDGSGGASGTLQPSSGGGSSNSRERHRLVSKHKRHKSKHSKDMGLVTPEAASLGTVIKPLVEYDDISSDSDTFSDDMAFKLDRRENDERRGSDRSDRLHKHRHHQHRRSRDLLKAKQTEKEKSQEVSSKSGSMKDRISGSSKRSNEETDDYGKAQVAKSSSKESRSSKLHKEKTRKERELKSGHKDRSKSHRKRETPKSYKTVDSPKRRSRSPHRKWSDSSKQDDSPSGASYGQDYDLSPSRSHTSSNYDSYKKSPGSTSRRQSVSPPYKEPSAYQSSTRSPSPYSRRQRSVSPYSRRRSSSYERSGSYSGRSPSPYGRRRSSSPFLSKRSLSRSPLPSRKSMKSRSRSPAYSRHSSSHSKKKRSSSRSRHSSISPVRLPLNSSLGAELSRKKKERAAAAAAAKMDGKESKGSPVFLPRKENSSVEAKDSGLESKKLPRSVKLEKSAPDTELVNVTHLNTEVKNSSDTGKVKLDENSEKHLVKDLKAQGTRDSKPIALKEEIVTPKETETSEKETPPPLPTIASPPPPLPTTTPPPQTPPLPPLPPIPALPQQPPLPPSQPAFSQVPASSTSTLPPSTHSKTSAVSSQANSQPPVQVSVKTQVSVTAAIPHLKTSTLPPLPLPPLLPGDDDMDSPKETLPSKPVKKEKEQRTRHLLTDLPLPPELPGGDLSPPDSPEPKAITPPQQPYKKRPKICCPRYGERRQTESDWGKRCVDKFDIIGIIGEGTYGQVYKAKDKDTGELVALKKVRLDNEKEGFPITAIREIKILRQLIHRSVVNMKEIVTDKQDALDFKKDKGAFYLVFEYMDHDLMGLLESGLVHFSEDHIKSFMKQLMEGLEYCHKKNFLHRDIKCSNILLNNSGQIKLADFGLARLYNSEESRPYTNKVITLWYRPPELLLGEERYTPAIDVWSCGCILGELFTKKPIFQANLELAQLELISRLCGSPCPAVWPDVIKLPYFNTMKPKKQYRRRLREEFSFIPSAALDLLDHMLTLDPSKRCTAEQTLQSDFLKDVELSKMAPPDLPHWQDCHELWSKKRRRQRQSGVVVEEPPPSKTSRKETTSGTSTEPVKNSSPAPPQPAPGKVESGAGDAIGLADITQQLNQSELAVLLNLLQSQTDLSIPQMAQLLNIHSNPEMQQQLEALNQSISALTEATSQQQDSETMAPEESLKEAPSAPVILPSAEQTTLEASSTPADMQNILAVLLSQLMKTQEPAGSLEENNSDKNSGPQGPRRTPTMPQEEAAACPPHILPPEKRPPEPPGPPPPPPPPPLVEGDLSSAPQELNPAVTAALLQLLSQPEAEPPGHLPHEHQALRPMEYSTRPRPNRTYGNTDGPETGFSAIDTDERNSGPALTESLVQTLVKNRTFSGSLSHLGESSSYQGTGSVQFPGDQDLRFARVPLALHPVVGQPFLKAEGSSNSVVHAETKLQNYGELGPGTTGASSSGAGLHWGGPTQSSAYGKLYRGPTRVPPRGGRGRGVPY
Sequence (O75909 whole entry partner): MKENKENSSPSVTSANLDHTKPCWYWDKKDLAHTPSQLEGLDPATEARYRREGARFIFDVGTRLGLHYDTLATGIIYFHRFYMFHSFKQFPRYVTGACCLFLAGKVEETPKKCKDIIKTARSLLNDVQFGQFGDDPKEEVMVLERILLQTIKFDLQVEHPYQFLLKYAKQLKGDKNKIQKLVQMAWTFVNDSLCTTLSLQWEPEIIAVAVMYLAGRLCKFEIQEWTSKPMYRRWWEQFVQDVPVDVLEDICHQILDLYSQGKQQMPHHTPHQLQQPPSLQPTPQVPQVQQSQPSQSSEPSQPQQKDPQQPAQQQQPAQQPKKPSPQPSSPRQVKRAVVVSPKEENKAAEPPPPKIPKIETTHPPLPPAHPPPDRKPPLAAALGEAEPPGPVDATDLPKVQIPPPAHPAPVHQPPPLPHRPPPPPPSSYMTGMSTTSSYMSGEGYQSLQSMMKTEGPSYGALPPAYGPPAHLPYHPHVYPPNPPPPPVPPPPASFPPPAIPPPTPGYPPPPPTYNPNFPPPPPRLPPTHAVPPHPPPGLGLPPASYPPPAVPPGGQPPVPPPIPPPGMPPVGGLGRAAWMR
Assay method text: Radiometric protein kinase assay (33PanQinase Activity Assay), CDK12
Type: biochemical
Recorded conditions: Table 3; CDK12 kinase activity; read-out: Biochemical Potency IC50
Below, each entry is listed with its recorded log10 IC50.
Hello, just confirming the data are log10 of IC50 with units of nM.

In the examples that follow, each entry is paired with its recorded log10 IC50.
QUERY: Jot down log10 IC50 (Human CDK12 wt/CycK (Homo sapiens (Human), UniProt Q9NYV4)) of Cc1cc(C)n2cc(CNc3cc(NC[C@H]4CCNC[C@@H]4O)nc4c(C5CC5)cnn34)nc2c1 [H-APPAMP-032] .
RESULT: 1.65

QUERY: Jot down log10 IC50 (Human CDK12 wt/CycK (Homo sapiens (Human), UniProt Q9NYV4)) of O[C@H]1CNCC[C@@H]1CNc1cc(NCc2cn3cc(C4CC4)cc(C(F)(F)F)c3n2)n2ncc(C3CC3)c2n1 [H-APPAMP-042] .
RESULT: 2.00

QUERY: Jot down log10 IC50 (Human CDK12 wt/CycK (Homo sapiens (Human), UniProt Q9NYV4)) of Cc1cccc2nc(CNc3cc(NC[C@H]4CCNC[C@@H]4O)nc4c(C(C)C)cnn34)cn12 [H-APPAMP-010] .
RESULT: 1.60

Continuing:
QUERY: Jot down log10 IC50 (Human CDK12 wt/CycK (Homo sapiens (Human), UniProt Q9NYV4)) of CCc1cnn2c(NCc3cn4c(C(F)(F)F)cccc4n3)cc(NC[C@H]3CCNC[C@@H]3O)nc12 [H-APPAMP-034] .
RESULT: 2.24

QUERY: Jot down log10 IC50 (Human CDK12 wt/CycK (Homo sapiens (Human), UniProt Q9NYV4)) of [2H]C([2H])(Nc1cc(NC[C@H]2CCNC[C@@H]2O)nc2c(C(C)C)cnn12)c1cn2ccccc2n1 [H-APPAMP-018] .
RESULT: 1.81

QUERY: Jot down log10 IC50 (Human CDK12 wt/CycK (Homo sapiens (Human), UniProt Q9NYV4)) of CC(C)c1cnn2c(NC(C)c3cn4ccccc4n3)cc(NC[C@H]3CCNC[C@@H]3O)nc12 (stereo partly drawn) [H-APPAMP-019] .
RESULT: 2.72

QUERY: Jot down log10 IC50 (Human CDK12 wt/CycK (Homo sapiens (Human), UniProt Q9NYV4)) of CC(C)c1cnn2c(NCc3nc4cc(C5CC5)ccn4n3)cc(NC[C@H]3CCNC[C@@H]3O)nc12 [H-APPAMP-044] .
RESULT: 1.60

QUERY: Jot down log10 IC50 (Human CDK12 wt/CycK (Homo sapiens (Human), UniProt Q9NYV4)) of Cc1cccc2nc(CNc3cc(NC[C@H]4CCNC[C@@H]4O)nc4c(C5CC5)cnn34)cn12 [H-APPAMP-025] .
RESULT: 1.56

QUERY: Jot down log10 IC50 (Human CDK12 wt/CycK (Homo sapiens (Human), UniProt Q9NYV4)) of O[C@H]1CNCC[C@@H]1CNc1cc(NCc2cn3c(C4CC4)cccc3n2)n2ncc(C3CC3)c2n1 [H-APPAMP-030] .
RESULT: 1.88

QUERY: Jot down log10 IC50 (Human CDK12 wt/CycK (Homo sapiens (Human), UniProt Q9NYV4)) of CCc1cnn2c(NCc3cn4cccc(C)c4n3)cc(NC[C@H]3CCNC[C@@H]3O)nc12 [H-APPAMP-026] .
RESULT: 1.49

QUERY: Jot down log10 IC50 (Human CDK12 wt/CycK (Homo sapiens (Human), UniProt Q9NYV4)) of Cc1cccc2ncc(CNc3cc(NC[C@H]4CCNC[C@@H]4O)nc4c(C(C)C)cnn34)n12 [H-APPAMP-001] .
RESULT: 1.58

QUERY: Jot down log10 IC50 (Human CDK12 wt/CycK (Homo sapiens (Human), UniProt Q9NYV4)) of CCc1cnn2c(NCc3cn4cc(C5CC5)cc(C(F)(F)F)c4n3)cc(NC[C@H]3CCNC[C@@H]3O)nc12 [H-APPAMP-038] .
RESULT: 2.00

QUERY: Jot down log10 IC50 (Human CDK12 wt/CycK (Homo sapiens (Human), UniProt Q9NYV4)) of Cc1cn2cc(CNc3cc(NC[C@H]4CCNC[C@@H]4O)nc4c(C5CC5)cnn34)nc2cc1C(F)(F)F [H-APPAMP-040] .
RESULT: 1.68

QUERY: Jot down log10 IC50 (Human CDK12 wt/CycK (Homo sapiens (Human), UniProt Q9NYV4)) of O[C@H]1CNCC[C@@H]1CNc1cc(NCc2cn3ccc(-c4ccccc4)cc3n2)n2ncc(C3CC3)c2n1 [H-APPAMP-045] .
RESULT: 1.26

QUERY: Jot down log10 IC50 (Human CDK12 wt/CycK (Homo sapiens (Human), UniProt Q9NYV4)) of CC(C)c1cnn2c(NCc3cn4cc(Cl)ccc4n3)cc(NC[C@H]3CCNC[C@@H]3O)nc12 [H-APPAMP-012] .
RESULT: 1.41

Entry source: patent US12473303B2
